Assay info: Half life in rat
Format: ADME, organism-based
Run conditions: in vivo
Parameter: half-life (min)

Example results:
N#CC[C@H]1CC[C@H](c2ccc(N3CCOc4ncnc(N)c4C3=O)cc2)CC1	186
CC(C)(O)C[C@H]1CC[C@H](c2ccc(N3CCOc4ncnc(N)c4C3=O)cc2)CC1	156

a. Nc1ncnc2c1C(=O)N(c1ccc([C@H]3CC[C@H](CC(=O)N4CCOCC4)CC3)cc1)CCO2
b. Nc1ncnc2c1C(=O)N(c1ccc([C@H]3CC[C@H](CC(=O)O)CC3)cc1)CCO2 [PF-04620110]
Higher half-life between a and b ? Record your answer as the label of the chosen record. b

A. Cc1noc(C[C@H]2CC[C@H](c3ccc(N4CCOc5ncnc(N)c5C4=O)cc3)CC2)n1
B. NC(=O)C[C@H]1CC[C@H](c2ccc(N3CCOc4ncnc(N)c4C3=O)cc2)CC1
Higher half-life between A and B ? Record your answer as the label of the chosen record. B
(B: 258 min, A: 162 min)
